molecular target: Voltage-dependent T-type calcium channel subunit alpha-1G (Homo sapiens); assay: Inhibition of T-type CaV3.1 channel expressed in HEK293 cells assessed as inhibition of calcium current at 10 uM by fluorescence based HTS FDSS6000 assay; assay type: cell-based
Use YES when the recorded inhibition is no lower than 50%; use NO when it is lower.

Record excerpt, results attached:
1) CCCc1nc(-c2ccccc2)c(CNCCN2CCN(C(c3ccccc3)c3ccccc3)CC2)o1 ... YES
2) CCCc1nc(-c2ccccc2)c(CNCCCN2CCN(c3ccccc3C)CC2)o1 ... YES
3) CCCc1nc(-c2ccccc2)c(CNCCN2CCN(c3ccccn3)CC2)o1 ... NO
4) CCCc1nc(-c2ccccc2)c(CNCCN2CCN(c3ccc(C(F)(F)F)cc3)CC2)o1 ... YES

Q) Test whether the compound CCCc1nc(-c2ccccc2)c(CNCCCN2CCN(c3cccc(OC)c3)CC2)o1 records inhibition of 50% or higher.
A) NO

Q) Test whether the compound CCCc1nc(-c2ccccc2)c(CNCCN2CCN(c3cccc(C(F)(F)F)c3)CC2)o1 records inhibition of 50% or higher.
A) YES

Q) Test whether the compound Cc1nc(-c2ccccc2)c(CNCCN2CCN(C(c3ccccc3)c3ccccc3)CC2)o1 records inhibition of 50% or higher.
A) YES

Q) Test whether the compound CCCc1nc(-c2ccccc2)c(CNCCCN2CCN(c3cccc(C(F)(F)F)c3)CC2)o1 records inhibition of 50% or higher.
A) YES

Q) Test whether the compound CCCc1nc(-c2ccccc2)c(CNCCCN2CCN(c3ccccc3)CC2)o1 records inhibition of 50% or higher.
A) NO

Q) Test whether the compound CCCc1nc(-c2ccccc2)c(CNCCCN2CCN(c3ccc(C(F)(F)F)cc3)CC2)o1 records inhibition of 50% or higher.
A) YES

Q) Test whether the compound CCCc1nc(-c2ccccc2)c(CNCCCN2CCN(c3cccc(C)c3)CC2)o1 records inhibition of 50% or higher.
A) NO

----------
biological target: Voltage-dependent T-type calcium channel subunit alpha-1G (Homo sapiens); experiment: Inhibition of T-type CaV3.1 channel expressed in HEK293 cells assessed as inhibition of calcium current at 10 uM by fluorescence based HTS FDSS6000 assay; type: cell-based
# Lookup of reported inhibition keyed by entry
Form entry: enter the amount, then its unit.

# count of solved cases: 2
1. CCCc1nc(-c2ccccc2)c(CNCCN2CCN(c3cccc(Cl)c3)CC2)o1 ... 51.2%
2. CCCc1nc(-c2ccccc2)c(CNCCN2CCN(c3ccc(C)c(C)c3)CC2)o1 ... 67.9%

// sample CCCc1nc(-c2ccccc2)c(CNCCN2CCN(c3ccccc3)CC2)o1 , its inhibition was 54.3%

// sample CCCc1nc(-c2ccccc2)c(CNCCN2CCN(c3ccccc3Cl)CC2)o1 , its inhibition was 60.1%

// sample CCCc1nc(-c2ccccc2)c(CNCCN2CCN(c3ccc(Cl)cc3)CC2)o1 , its inhibition was 55.8%

// sample CCCc1nc(-c2ccccc2)c(CNCCN2CCN(c3ccccc3C(F)(F)F)CC2)o1 , its inhibition was 54.6%

// sample CCCc1nc(-c2ccccc2)c(CNCCCN2CCN(c3ccc(OC)cc3)CC2)o1 , its inhibition was 42.1%

// sample CCCc1nc(-c2ccccc2)c(CNCCCN2CCN(c3ccc(Cl)cc3)CC2)o1 , its inhibition was 63.2%

// sample CCCc1nc(-c2ccccc2)c(CNCCN2CCN(c3cccc(C)c3)CC2)o1 , its inhibition was 43.1%

// sample CCCc1nc(-c2ccccc2)c(CNCCCN2CCN(c3ccc(C)c(C)c3)CC2)o1 , its inhibition was 54.6%

----------
# Lookup of reported inhibition keyed by entry
biological target: Voltage-dependent T-type calcium channel subunit alpha-1G (Homo sapiens, UniProt O43497); experiment: Inhibition of T-type CaV3.1 channel expressed in HEK293 cells assessed as inhibition of calcium current at 10 uM by fluorescence based HTS FDSS6000 assay; type: cell-based
Sequence (O43497 whole entry): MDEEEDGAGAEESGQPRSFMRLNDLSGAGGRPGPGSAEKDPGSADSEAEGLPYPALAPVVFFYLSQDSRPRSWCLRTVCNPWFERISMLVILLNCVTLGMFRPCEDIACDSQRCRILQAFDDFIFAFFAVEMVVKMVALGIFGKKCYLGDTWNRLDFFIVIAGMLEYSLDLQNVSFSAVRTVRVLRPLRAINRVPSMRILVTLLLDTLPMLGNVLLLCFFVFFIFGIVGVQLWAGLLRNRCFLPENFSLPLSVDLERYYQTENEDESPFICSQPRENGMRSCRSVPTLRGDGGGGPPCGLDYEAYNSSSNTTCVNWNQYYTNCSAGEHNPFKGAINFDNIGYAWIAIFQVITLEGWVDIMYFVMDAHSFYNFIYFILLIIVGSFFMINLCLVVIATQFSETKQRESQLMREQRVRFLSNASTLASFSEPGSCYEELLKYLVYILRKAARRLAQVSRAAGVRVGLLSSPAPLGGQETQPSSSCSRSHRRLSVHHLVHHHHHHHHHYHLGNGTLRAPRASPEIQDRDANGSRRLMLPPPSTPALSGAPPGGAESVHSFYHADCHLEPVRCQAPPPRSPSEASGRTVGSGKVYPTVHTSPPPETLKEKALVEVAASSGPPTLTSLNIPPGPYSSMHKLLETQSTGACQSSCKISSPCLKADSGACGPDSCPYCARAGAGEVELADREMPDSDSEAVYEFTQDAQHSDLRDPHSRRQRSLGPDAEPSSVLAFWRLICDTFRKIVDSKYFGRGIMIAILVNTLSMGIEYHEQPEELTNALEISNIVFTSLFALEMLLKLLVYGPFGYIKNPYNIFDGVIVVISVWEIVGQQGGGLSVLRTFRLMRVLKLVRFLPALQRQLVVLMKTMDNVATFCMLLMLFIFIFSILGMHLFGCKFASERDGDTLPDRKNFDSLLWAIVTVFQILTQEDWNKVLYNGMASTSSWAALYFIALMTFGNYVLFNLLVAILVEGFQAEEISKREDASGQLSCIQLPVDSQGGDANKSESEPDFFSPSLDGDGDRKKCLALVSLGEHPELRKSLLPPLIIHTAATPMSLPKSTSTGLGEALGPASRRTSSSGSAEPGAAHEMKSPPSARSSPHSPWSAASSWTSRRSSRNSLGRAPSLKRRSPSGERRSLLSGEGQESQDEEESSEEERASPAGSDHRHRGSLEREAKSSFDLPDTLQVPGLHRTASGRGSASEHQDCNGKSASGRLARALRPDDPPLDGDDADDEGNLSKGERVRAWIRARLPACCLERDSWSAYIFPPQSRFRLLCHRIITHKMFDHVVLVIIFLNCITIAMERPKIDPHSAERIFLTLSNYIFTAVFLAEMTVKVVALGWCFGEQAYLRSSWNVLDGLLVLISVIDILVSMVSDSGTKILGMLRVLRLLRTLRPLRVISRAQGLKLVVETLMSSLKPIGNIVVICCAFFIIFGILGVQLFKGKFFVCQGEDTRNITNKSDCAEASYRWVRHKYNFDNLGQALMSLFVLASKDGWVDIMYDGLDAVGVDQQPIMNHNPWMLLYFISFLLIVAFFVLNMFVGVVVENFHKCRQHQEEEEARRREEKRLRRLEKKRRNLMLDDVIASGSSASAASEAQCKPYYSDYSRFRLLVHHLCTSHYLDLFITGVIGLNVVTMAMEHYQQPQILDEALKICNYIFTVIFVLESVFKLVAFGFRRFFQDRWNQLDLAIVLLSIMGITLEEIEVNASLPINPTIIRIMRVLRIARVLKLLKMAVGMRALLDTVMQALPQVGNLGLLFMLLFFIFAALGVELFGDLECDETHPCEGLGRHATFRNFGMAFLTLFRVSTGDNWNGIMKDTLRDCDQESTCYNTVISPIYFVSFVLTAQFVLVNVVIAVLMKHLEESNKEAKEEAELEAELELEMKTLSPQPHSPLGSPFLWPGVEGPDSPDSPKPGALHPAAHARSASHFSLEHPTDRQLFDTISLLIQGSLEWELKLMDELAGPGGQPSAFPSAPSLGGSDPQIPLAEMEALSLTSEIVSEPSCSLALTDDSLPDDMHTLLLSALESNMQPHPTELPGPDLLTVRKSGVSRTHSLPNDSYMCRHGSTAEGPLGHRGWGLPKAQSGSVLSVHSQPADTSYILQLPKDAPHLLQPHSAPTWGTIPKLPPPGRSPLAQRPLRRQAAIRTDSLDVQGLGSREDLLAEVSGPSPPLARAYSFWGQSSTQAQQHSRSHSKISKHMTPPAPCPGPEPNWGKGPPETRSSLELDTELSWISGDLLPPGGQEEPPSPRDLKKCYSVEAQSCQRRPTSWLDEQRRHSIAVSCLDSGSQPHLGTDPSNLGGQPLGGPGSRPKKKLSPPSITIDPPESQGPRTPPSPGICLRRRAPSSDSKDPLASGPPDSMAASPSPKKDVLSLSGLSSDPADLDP
Report only the number, with the unit % understood.

1) CCCc1nc(-c2ccccc2)c(CNCCN2CCN(c3ccc(C)cc3)CC2)o1 ... 48.1
2) CCCc1nc(-c2ccccc2)c(CNCCN2CCN(c3cccc(OC)c3)CC2)o1 ... 40.2
3) CCCc1nc(-c2ccccc2)c(CNCCCN2CCN(c3ccc(F)cc3)CC2)o1 ... 62.5
4) CCCc1nc(-c2ccccc2)c(CNCCCN2CCN(c3ccccc3C(F)(F)F)CC2)o1 ... 45
5) CCCc1nc(-c2ccccc2)c(CNCCN2CCN(c3ccc(C)cc3C)CC2)o1 ... 64.3

// sample CCCc1nc(-c2ccccc2)c(CNCCCN2CCN(c3cccc(Cl)c3)CC2)o1 , its inhibition was 65.9

// sample CCCc1nc(-c2ccccc2)c(CNCCCN2CCN(c3cccc(C)c3C)CC2)o1 , its inhibition was 55.2

// sample CCCc1nc(-c2ccccc2)c(CNCCCN2CCN(c3ccccc3Cl)CC2)o1 , its inhibition was 64.7

// sample CCCc1nc(-c2ccccc2)c(CNCCCN2CCN(c3ccccc3F)CC2)o1 , its inhibition was 54.4

// sample Cc1nc(-c2ccccc2)c(CNCCCN2CCN(c3ccc(Cl)cc3)CC2)o1 , its inhibition was 38.1

----------
# Lookup of reported inhibition keyed by entry
biological target: Voltage-dependent T-type calcium channel subunit alpha-1G (Homo sapiens); assay: Inhibition of T-type CaV3.1 channel expressed in HEK293 cells assessed as inhibition of calcium current at 10 uM by fluorescence based HTS FDSS6000 assay; assay type: cell-based
Report only the number, with the unit % understood.

# count of solved cases: 2
1) CCCc1nc(-c2ccccc2)c(CNCCN2CCN(c3ccccc3C)CC2)o1 ... 51.3
2) CCCc1nc(-c2ccccc2)c(CNCCN2CCN(c3cccc(F)c3)CC2)o1 ... 62.3

Now take the following compound into account.
// sample CCCc1nc(-c2ccccc2)c(CNCCN2CCN(c3ccc(OC)cc3)CC2)o1 , its inhibition was 51.5
